Target: ETA (rabbit renal artery vascular smooth muscle cells) (Oryctolagus cuniculus, UniProt A5A8K3)
Construct: The cells used were rabbit renal artery vascular smooth muscle cells; endogenous in cells; host or cells: rabbit renal artery vascular smooth muscle cells
Sequence (A5A8K3 21-427): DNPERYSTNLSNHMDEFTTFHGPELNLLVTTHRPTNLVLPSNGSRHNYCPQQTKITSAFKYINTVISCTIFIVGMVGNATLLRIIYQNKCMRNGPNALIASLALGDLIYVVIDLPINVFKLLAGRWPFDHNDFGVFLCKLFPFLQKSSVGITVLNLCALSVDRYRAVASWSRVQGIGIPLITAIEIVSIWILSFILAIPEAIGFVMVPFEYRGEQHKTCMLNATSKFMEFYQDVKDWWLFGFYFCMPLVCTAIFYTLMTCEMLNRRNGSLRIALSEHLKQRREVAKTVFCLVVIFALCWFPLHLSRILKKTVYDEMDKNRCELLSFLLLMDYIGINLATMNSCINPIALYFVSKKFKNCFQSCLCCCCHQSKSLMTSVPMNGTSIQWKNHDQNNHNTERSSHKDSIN
Assay: Endothelin receptor binding assay-A (ERBA-A), intact cell binding of [125I]-ET-1
MEASURED_QUANTITY: inhibition at 10 µM (%)

C[C@](Cc1c[nH]c2ccccc12)(NC(=O)OC1C2CC3CC(C2)CC1C3)C(=O)N(CCC(=O)O)CCc1ccccc1 (stereo partly shown) | 25

I: Cc1[nH]c2ccccc2c1C[C@@H](NC(=O)OC1C2CC3CC(C2)CC1C3)C(=O)N[C@@H](Cc1ccccc1)C(=O)NCC(=O)O (stereo partly shown)
II: CC(Cc1c[nH]c2ccccc12)(NC(=O)OC1C2CC3CC(C2)CC1C3)C(=O)N(CCc1ccccc1)CC(=O)O (racemic)
III: C[C@](Cc1c[nH]c2ccccc12)(NC(=O)OC1C2CC3CC(C2)CC1C3)C(=O)N(CCc1ccccc1)CC(=O)O (stereo partly shown)
Reorder: inhibition at 10 µM, max to min. In plain terms: list the labels in the order you were asked to.
I, III, II
